Values compiled from ChEMBL document CHEMBL3988442.

biological target: Arginase-2, mitochondrial (Homo sapiens) (UniProt P78540); assay: in vitro enzyme assay to detect the production of urea directly proportional to the activity of Arginase II; assay type: functional; design: scale not given: in the data most compounds retested in dose-response had high values; details: 33.3 µM
Sequence (P78540 whole entry): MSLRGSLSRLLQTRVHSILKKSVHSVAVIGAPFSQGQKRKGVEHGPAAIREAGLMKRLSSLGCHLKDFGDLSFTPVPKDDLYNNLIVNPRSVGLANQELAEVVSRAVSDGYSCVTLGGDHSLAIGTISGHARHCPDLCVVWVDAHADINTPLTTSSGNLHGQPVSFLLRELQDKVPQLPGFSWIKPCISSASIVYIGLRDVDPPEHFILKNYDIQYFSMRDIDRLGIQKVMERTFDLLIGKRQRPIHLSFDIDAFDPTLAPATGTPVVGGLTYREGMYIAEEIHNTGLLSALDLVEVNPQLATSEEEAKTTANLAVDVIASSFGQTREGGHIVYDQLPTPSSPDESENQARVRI
Outcome measure: Percent Effect (%)
The figure you give is taken to be in %; do not add the unit.

See these solved cases before continuing.
## Task Record request: Percent Effect value, item Cc1cc(C(=O)N2CCC(c3nccn3CCCN(C)C)CC2)no1
## Result 10.9

## Task Which Percent Effect is listed for Cc1ccccc1OCCC(=O)OC(C)C(=O)Nc1sccc1C(N)=O (stereo not drawn) ?
## Result -10.2

## Task Looking for the measured Percent Effect of CC(C(=O)N1CCCN(c2ncccc2C#N)CC1)n1cccn1 (stereo not drawn) , can you help?
## Result 4.68

## Task Item under review: Cc1cc(-c2ccc(C(=O)O)cc2)nc(C2CCCN(C(C)C)C2)n1 (stereo not drawn) . Reported Percent Effect?
## Result 0.885

## Task Would you mind telling me what Percent Effect value was observed for CN(Cc1ccsc1)C(=O)CN1CCOC(Cn2cccn2)C1 (stereo not drawn) ?
## Result -0.615

## Task Please report the recorded Percent Effect for CC(NC(=O)N1CCN(c2ccc(Cl)cc2)CC1)C(=O)N1CCSCC1 (stereo not drawn) .
## Result 0.35

## Task Percent Effect for Cc1ccccc1N1CCN(C(=O)c2ccc[nH]2)C(C)C1 (stereo not drawn) ?
## Result -2.45

## Task Quick one: Percent Effect for CO[C@@H]1CC[C@H]2[C@H]1OCCN2C(=O)COc1ccc(F)cc1 ?
## Result 3.5

Next:
## Task Value lookup for Percent Effect; key = CCNC(=O)C1CCN(Cc2csc(-c3ccc(C)o3)n2)CC1
## Result 1.5

## Task Percent Effect for CCC(CNC(=O)c1ccc(=O)[nH]n1)N1CCc2ccccc2C1 (stereo not drawn) ?
## Result 11.4

## Task I would be grateful if you could share the reported Percent Effect for c1ccc(OCc2ccncc2)c(CNC2CCc3ncnn3C2)c1 (stereo not drawn) .
## Result 10.7

## Task Would you kindly share the measured Percent Effect for Cc1nn(C)c(Cl)c1CNCc1ccc(OCC(N)=O)cc1 ?
## Result 2.22

## Task Name the recorded Percent Effect for NC(=O)CC1CCN(C(=O)NCc2ccccc2-n2cccn2)CC1 .
## Result -1.77

* * *

target: Arginase-2, mitochondrial (Homo sapiens); experiment: in vitro enzyme assay to detect the production of urea directly proportional to the activity of Arginase II; type: functional; design: scale not given: in the data most compounds retested in dose-response had high values; details: 33.3 µM
Outcome measure: Percent Effect (%)
Entry rule: numbers only, all in %.

## Task Form field: reported Percent Effect of CC(C)CN1CCCn2nc(CNC(=O)c3cccnc3O)cc2C1
## Result 5.73

## Task If you can, please state the reported Percent Effect value of O=C(NC1CC1)[C@H]1C[C@@H]2CCN(CCc3ccccc3)C[C@H]2O1 .
## Result 2.56

## Task May I ask what Percent Effect has been recorded for CC(c1cccc(S(N)(=O)=O)c1)N(C)CCc1ccccc1 (stereo unspecified) ?
## Result -4.3

## Task # query: Percent Effect of entry CC(=O)N1CCn2c(C(=O)N(C)C)cnc2C1
## Result -3.03

## Task I have this molecule here, Cn1cc(CN2CC[C@@H]3[C@@H](CCC(=O)N3CCC3=CCCCC3)C2)cn1 , and I need its recorded Percent Effect.
## Result -2.79

## Task Please give the measured Percent Effect for this molecule: Cc1cccc(C(=O)N2CCCCC2c2ccc(CN(C)C)cc2)n1 (stereo unspecified)
## Result 27.6

---
## Task Fill in: Percent Effect of CN(C)c1cc2c(nn1)CCN(C(=O)Cc1noc3ccccc13)C2 is ___
## Result 2.87

## Task What value of Percent Effect has been reported for the following molecule? CCc1noc(CNc2cc(F)ccc2OCC2CCCO2)n1 (stereo unspecified)
## Result -0.476

## Task Record request: Percent Effect value, item O=C(CCn1ccccc1=O)Nc1ccc(I)cc1
## Result -0.248

## Task For Cc1cccnc1CN(C)CC1(O)CCCN(CC2CCCCC2)C1=O (stereo unspecified) , what is its reported Percent Effect?
## Result 5.94

## Task Tell me the measured Percent Effect of O=C(CCN1CCCN(c2nccs2)CC1)NCC1CCCCC1 , please.
## Result 0
